The measured values listed here are drawn from the supplement of paper PMC8975748.

- Tested on: Saccharomyces cerevisiae BY4741 SeMeCo community
- Assay notes: z-score of subpopulation abundance vs DMSO median, subpopulation auxotrophic for HLM; higher = larger share of this subpopulation than in DMSO controls
- Condition info: 10 µM; 24 h; SM minimal medium; subpopulation (auxotrophy): HLM
Endpoint name: z-score of subpopulation abundance
Respond numerically, and do not add a unit to the figure.

Worked cases, answers included:
Molecule	z-score of subpopulation abundance
CC(C)c1nc(N(C)S(C)(=O)=O)nc(-c2ccc(F)cc2)c1/C=C/[C@@H](O)C[C@@H](O)CC(=O)O [Rosuvastatin Calcium]	3.96
CC[C@H]1OC(=O)[C@H](C)[C@@H](O[C@H]2C[C@@](C)(OC)[C@@H](O)[C@H](C)O2)[C@H](C)[C@@H](O[C@@H]2O[C@H](C)C[C@H](N(C)C)[C@H]2O)[C@](C)(O)C[C@@H](C)C(=O)[C@H](C)[C@H]2OC(=O)O[C@@]21C [Erythromycin Cyclocarbonate]	0.52
Nc1cc(C(Cl)=C(Cl)Cl)c(S(N)(=O)=O)cc1S(N)(=O)=O [Clorsulon]	0.02

Prompt line: What does the record list as z-score of subpopulation abundance for CN1C(C(=O)Nc2ccccn2)=C(O)c2sc(Cl)cc2S1(=O)=O [Lornoxicam] ?
Response line: 0.08

====

- Tested on: Saccharomyces cerevisiae BY4741 SeMeCo community
- Assay notes: z-score of subpopulation abundance vs DMSO median, subpopulation auxotrophic for U; higher = larger share of this subpopulation than in DMSO controls
- Condition info: 10 µM; 24 h; SM minimal medium; subpopulation (auxotrophy): U
Structures can show the parent of a compound that is named as a salt.
Endpoint name: z-score of subpopulation abundance
Respond numerically, and do not add a unit to the figure.

Worked cases, answers included:
Molecule	Numeric readout
Nc1nnc(-c2cccc(Cl)c2Cl)c(N)n1	-0.91
CCOC(=O)C1=C(COCCN)NC(C)=C(C(=O)OC)[C@@H]1c1ccccc1Cl	-7.34
NC[C@H]1O[C@H](O[C@H]2[C@H](O[C@@H]3O[C@H](CO)[C@@H](O)[C@H]3O)[C@@H](O)[C@H](N)C[C@@H]2N)[C@H](N)[C@@H](O)[C@@H]1O [Ribostamycin Sulfate]	0.39
O=C(O)c1cn(-c2ccc(F)cc2)c2cc(N3CCNCC3)c(F)cc2c1=O [Sarafloxacin HCl]	0.41
CCCCOC(=O)c1ccc(O)cc1	-0.7

Prompt line: What does the record list as z-score of subpopulation abundance for CC1=C(C(=O)OCCN(Cc2ccccc2)c2ccccc2)C(c2cccc([N+](=O)[O-])c2)C(P2(=O)OCC(C)(C)CO2)=C(C)N1 (stereo not drawn) ?
Response line: 0.34

Prompt line: What does the record list as z-score of subpopulation abundance for Nc1nc2c(ncn2COCCO)c(=O)[nH]1 ?
Response line: -0.49

Prompt line: What does the record list as z-score of subpopulation abundance for OC(CCN1CCCCC1)(c1ccccc1)C1CCCCC1 (stereo not drawn) [Trihexyphenidyl hydrochloride] ?
Response line: 0.45

====

- Test system: Saccharomyces cerevisiae BY4741 SeMeCo community
- Assay notes: z-score of prototroph abundance vs DMSO median; higher = larger share of this subpopulation than in DMSO controls
- Condition info: 10 µM; 24 h; SM minimal medium; subpopulation (auxotrophy): Prototroph
Counter-ions that a name gives are not always drawn.
A collection of compounds and their measured z-score of prototroph abundance
Respond numerically, and do not add a unit to the figure.

Worked cases, answers included:
> print(dat)
                                   compound  numeric.readout
1  CN1[C@@H]2CC[C@H]1C[C@@H](OC(=O)c1c[nH]c3ccccc13)C2 [Tropisetron]            -1.48
2  Cc1cccc(C)c1NC(=O)C1CCCCN1C (stereo not drawn) [Mepivacaine]            -0.01
3  CC1(C)S[C@@H]2[C@H](NC(=O)[C@H](N)c3ccc(O)cc3)C(=O)N2[C@H]1C(=O)O [Amoxicillin trihydrate]             -0.1
4  Nc1nc(/C(=C/CC(=O)O)C(=O)N[C@@H]2C(=O)N3C(C(=O)O)=CCS[C@H]23)cs1 [Ceftibuten dihydrate]             0.52

Prompt line: What does the record list as z-score of prototroph abundance for Cc1c(-c2ccccc2)oc2c(C(=O)OCCN3CCCCC3)cccc2c1=O [Flavoxate HCl] ?
Response line: -0.85

Prompt line: What does the record list as z-score of prototroph abundance for CSCC1CN(/N=C/c2ccc([N+](=O)[O-])o2)C(=O)O1 (stereo not drawn) [Nifuratel] ?
Response line: 1.73

Prompt line: What does the record list as z-score of prototroph abundance for CCC[C@@H]1C[C@@H](C(=O)N[C@@H]([C@H]2O[C@H](SC)[C@H](O)[C@@H](O)[C@H]2O)[C@@H](C)O)N(C)C1 [Lincomycin HCl] ?
Response line: 0.69

Prompt line: What does the record list as z-score of prototroph abundance for OC(CCN1CCCCC1)(c1ccccc1)C1CCCCC1 (stereo not drawn) [Trihexyphenidyl hydrochloride] ?
Response line: -0.03
